Every entry's value here was drawn from the supplement of paper PMC5908809.

Listed below: percent inhibition of viability values for each entry.
system: NKL (IL-2 2.5 ng/mL); experiment: percent inhibition of viability; higher = more inhibition; conditions: 72 h; 2500 nM;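 also: normalised to DMSO-only wells as negative and benzethonium chloride as positive control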
VALUE_KIND: percent inhibition of viability (%)

| COMPOUND | VALUE_MEASURED |
| --- | --- |
| CCOc1cc2ncc(C#N)c(Nc3ccc(F)c(Cl)c3)c2cc1NC(=O)/C=C/CN(C)C [Pelitinib] (max concentration tested 2500 nM) | 92.2 |
| COc1cc(C(=O)NC2CCN(C)CC2)c(F)cc1Nc1ncc2c(n1)N(C1CCCC1)CC(F)(F)C(=O)N2C [TAK-960] (max concentration tested 2500 nM) | 2.51 |
| CCn1nnc2c(N3CCOCC3)nc(-c3ccc(NC(=O)Nc4ccc(C(=O)N5CCN(C)CC5)cc4)cc3)nc21 [PKI-402] (max concentration tested 2500 nM) | 68.9 |
| O=C(c1cccc(Cl)c1F)N1CCN(Cc2cccc(Nc3nccs3)n2)CC1 [MK-8745] (max concentration tested 2500 nM) | 40.3 |
